The entries below come with measured TGI values attached.
Tested on: OVCAR-3 ovarian
Test: NCI tumour cell line growth inhibition, 48 h

[
  {
    "compound": "CC(=O)ON(C(C)=O)c1ccc(-c2nc3ccccc3s2)cc1C",
    "measurement.units": "µM",
    "reading.qualifier": ">",
    "TGI": 100
  },
  {
    "compound": "CC[C@@H]1/C=C/C=C/C[C@H](C)[C@@H](O)[C@](C)(O)C(=O)[C@H](C)[C@@H](O)[C@H](C)C(=O)[C@H](C)[C@@H](O)[C@H](C)/C=C/C(=O)O[C@H]2[C@@H](C)[C@@H](CC1)O[C@@]1(CC[C@@H](C)[C@@H](CC(C)O)O1)[C@@H]2C (stereo not given in full)",
    "measurement.units": "µM",
    "reading.qualifier": "=",
    "TGI": 3.95
  },
  {
    "compound": "COC1OC2COC(c3ccccc3)OC2C(O)C1Br (stereo not given)",
    "measurement.units": "µM",
    "reading.qualifier": ">",
    "TGI": 100
  },
  {
    "compound": "CCCNc1nc2ccccc2c2c1S(=O)(=O)c1ccc(Cl)cc1C2=O",
    "measurement.units": "µM",
    "reading.qualifier": "=",
    "TGI": 3.1
  },
  {
    "compound": "C=CS(=O)(=O)CCN1CC1",
    "measurement.units": "µM",
    "reading.qualifier": ">",
    "TGI": 10
  }
]
